This collection of values is drawn from the supplement of paper PMC11451515.

test system: P12-Ichikawa; experiment: cell viability relative to DMSO control; higher = less cytotoxic; conditions: RPMI 5 mM glucose + 10% dialyzed FBS; 48 h; 46.1 µM
Categories are assigned from the measured cell viability using these intervals: A (below 40%), B (40% to below 90%), C (90% or more)

INSERT INTO assay_data (molecule, cat) VALUES
  ('O=C(NC[C@H](O)CO)c1ccncc1Nc1ccc(I)cc1F', 'B'),
  ('CC(C)NC[C@@H](C(=O)N1CCN(c2ncnc3c2[C@H](C)C[C@H]3O)CC1)c1ccc(Cl)cc1', 'A');

// query Which class is correct for the following molecule? Cn1c(CNc2ccc(C(=N)N)cc2)nc2cc(C(=O)N(CCC(=O)O)c3ccccn3)ccc21
// result C

// query Which class is correct for the following molecule? CNc1nccc(-c2cccnc2Oc2cc(C(=O)Nc3cccc(C(F)(F)F)c3)ccc2C)n1
// result C

// query Which class is correct for the following molecule? C/C=C(/C)C(=O)O[C@H]1C(C)=C[C@]23C(=O)[C@@H](C=C(CO)[C@@H](O)[C@]12O)[C@H]1[C@@H](C[C@H]3C)C1(C)C
// result B

// query Which class is correct for the following molecule? COc1cc(OC)c(/C=C/[S+](=O)([O-])Cc2ccc(OC)c(NCC(=O)[O][Na])c2)c(OC)c1
// result A

// query Which class is correct for the following molecule? CC[C@H](C)[N]1C=C(C)C2=C1C=C(C=C2C(=O)NC\C3=C(C)\C=C(\C)NC3=O)C4=CC=C(N=C4)N5CCNCC5
// result C

// query Which class is correct for the following molecule? CC(C)(C)c1[nH]cnc1/C=c1\[nH]c(=O)/c(=C/c2ccccc2)[nH]c1=O
// result A

// query Which class is correct for the following molecule? C[N]1C=C(C2=C1C=CC=C2)\C3=C(\C(=O)NC3=O)C4=C5CC(CN)CC[N]5C6=C4C=CC=C6 (stereo not given)
// result B

// query Which class is correct for the following molecule? O=C(Nc1c(Cl)cncc1Cl)c1ccc(OC(F)F)c(OCC2CC2)c1
// result C
